# Test system: Human papillomavirus type 1a protein E7 (residues 44-93)
# Protocol Text: HPV1a E7 fragment binders on microarrays, primary screen, biochemical, small-molecule microarray, residues 44-93, 635 nm fluorescence (AID 1108);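 further: E7 fragment applied at 1 µg/mL in TBST for 1 h at 4 C; score combines spot fluorescence with its signal to noise ratio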
# Measurement Setup: small-molecule microarray binding, fluorescence 635 nm; higher = more signal
Assign 1 whenever composite z-score does not fall below 0.8; assign -1 whenever it does.

Challenge: Check if composite z-score >= 0.8 (inclusive). Item: COc1ccc([Si](C)(C)[C@@H]2[C@@H](CC(=O)N3CCC[C@H]3CO)O[C@]3(C(=O)N(Cc4cccc(N5C(=O)c6cccc7cccc5c67)c4)c4ccccc43)[C@H]2C)cc1
Response given: 1

Challenge: Could you tell me if the measured composite z-score of C[C@H]1C2[C@H](Cc3ccccc3)NC(=O)[C@]23C(=O)N[C@@H](Cc2ccccc2)C(=O)N2CCC[C@H]2C(=O)NC/C=C/CC/C=C/C3[C@@H]2O[C@]12C (stereo partly drawn) reaches 0.8 or more?
Response given: -1

Challenge: Determine whether this compound has composite z-score no lower than 0.8: COc1ccc(C(=O)Nc2ccc(CN3C(=O)[C@@]4(O[C@@H](CC(=O)N(CCO)Cc5ccccc5)[C@H]([Si](C)(C)c5ccc(OC)cc5)[C@H]4C)c4ccccc43)cc2)cc1
Response given: -1

Challenge: Decide: is the reported value of composite z-score for C[C@]1(C(=O)O)c2ccccc2C(=O)N(Cc2cc(C(F)(F)F)cc(C(F)(F)F)c2)[C@H]1c1ccc(CO)cc1 equal to or greater than 0.8?
Response given: 1

Challenge: Confirm if composite z-score reported for the compound COC(=O)C(CC#Cc1ccc2c(c1)[C@]1(C(=O)N2)[C@H](C(=O)NC[C@H](O)c2ccccc2)[C@H]2C(=O)O[C@H](c3ccccc3)[C@H](c3ccccc3)N2[C@@H]1c1ccc(O)cc1)C(=O)OC is 0.8 or above.
Response given: -1

Challenge: Has NCCCCCCNC(=O)[C@@H]1C[C@@H]2C(=O)NCC(=O)N2[C@@H]1c1cccc(OCCO)c1 a recorded composite z-score greater than or equal to 0.8?
Response given: 1

Challenge: Dear colleague, could you confirm whether OCCCc1cc[n+](Cc2cc3c(cc2Br)OCO3)cc1 has composite z-score at or above 0.8?
Response given: -1

Challenge: // inclusive: composite z-score at least 0.8? input: C=C(CCCC)C(=O)CC[C@@H](OC(C)=O)c1ccc(OCCO)cc1
Response given: -1

* * *

# System: wheat germ agglutinin (Triticum aestivum), Alexa647-labelled
# Protocol Text: wheat germ agglutinin binders on compound microarrays, profiling panel, artefact control for SMM control-protein annotation, biochemical, small-molecule microarray, 635/667 nm fluorescence (AID 1140);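 further: score merges 667 nm feature emission with signal to noise over triplicate slides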
# Measurement Setup: WGA-A647 binding, 635 nm fluorescence, higher = more signal
Quantity Name: composite z-score
Please state the value as a number alone, without comment.

Take a look at these entries with their results.
| Molecule | Tested Target | composite z-score |
| --- | --- | --- |
| CC(C)C[C@@H]1NC(=O)[C@H]2C[C@@H](C(=O)O)[C@@H](c3cccc(OCCO)c3)N2C1=O | wheat germ agglutinin (Triticum aestivum), Alexa647-labelled | 0.325 |
| COc1ccc(C(O)C2C=CC3C(=O)N(C)C(=O)C3N2Nc2ccccc2)cc1 (configuration not stated) | wheat germ agglutinin (Triticum aestivum), Alexa647-labelled | 1.08 |
| O=C1O[C@H](c2ccccc2)[C@H](c2ccccc2)N2[C@H]1[C@@H](C(=O)N1CCN(c3ncccn3)CC1)[C@]1(C(=O)Nc3ccc(C#CC4(O)CCCCCC4)cc31)[C@H]2c1ccc(O)cc1 | wheat germ agglutinin (Triticum aestivum), Alexa647-labelled | 1.06 |
| CC(C)c1ccc(NN2C(C(O)C3=C[C@H]4C[C@@H](C3)C4(C)C)C=CC3C(=O)N(c4ccccc4)C(=O)C32)cc1 (some centres not stated) | wheat germ agglutinin (Triticum aestivum), Alexa647-labelled | 0.632 |
| COc1ccc(CCNC(=O)[C@@]2(C)c3ccccc3C(=O)N(Cc3ccc(OC(F)(F)F)cc3)[C@H]2c2ccc(CO)cc2)cc1 | wheat germ agglutinin (Triticum aestivum), Alexa647-labelled | 0.375 |

Challenge: Answer with the recorded composite z-score for the molecule listed here: C=C(COC)/C(=C/C[C@@H](OC(=O)c1ccncc1)c1ccccc1OCCO)c1cnc2ccccc2c1
Response given: 1.39

Challenge: Item [N-]=[N+]=NCc1ccccc1C[C@@]1(C(=O)NCCN2CCOCC2)N=C(c2ccc(OCCCO)cc2)O[C@@H]1c1ccccc1 : provide composite z-score
Response given: 0.639

* * *

# Tested Target: Dickkopf-related protein 1 (Homo sapiens) (UniProt O94907)
# Sequence (O94907 whole entry, looked up): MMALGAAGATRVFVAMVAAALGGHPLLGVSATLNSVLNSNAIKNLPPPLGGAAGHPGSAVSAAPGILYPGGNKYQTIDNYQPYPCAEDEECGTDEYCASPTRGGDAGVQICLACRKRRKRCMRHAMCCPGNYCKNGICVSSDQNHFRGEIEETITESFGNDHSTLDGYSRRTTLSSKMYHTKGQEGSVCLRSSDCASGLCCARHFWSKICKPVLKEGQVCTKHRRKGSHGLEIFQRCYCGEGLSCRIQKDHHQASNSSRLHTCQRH
# Protocol Text: DKK1 binders on small-molecule microarrays, primary screen, biochemical, small-molecule microarray, 635 nm fluorescence scan (AID 1106);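 further: score merges emission near 667 nm with signal to noise over three replicate slides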
# Measurement Setup: DKK1 binding, higher = more signal
Quantity Name: composite z-score
Enter the number alone.

| Compound | composite z-score |
| --- | --- |
| COC(=O)[C@@]1(Cc2ccccc2)[C@H]2c3cc(C(=O)N(C)C)n(CCF)c3C[C@H]2CN1C(=O)c1ccccc1 | -1.23 |
| C=CCNC(=O)[C@@H]1[C@H]2C(=O)O[C@H](c3ccccc3)[C@H](c3ccccc3)N2[C@H](c2ccc(OCCO)cc2)[C@@]12C(=O)Nc1ccc(C#CC3=CCCCC3)cc12 | 0.586 |
| COC(=O)[C@@]1(Cc2ccc(F)cc2)[C@@H]2C(=CC(=O)[C@H]2CC(=O)C(=O)N2CCCC2)CN1C(=O)c1ccccc1 | 0.467 |
| O=C1c2ccccc2[C@@]2(Cc3ccccc3N(CC(F)(F)F)C2=O)[C@H](c2ccc(CO)cc2)N1Cc1ccccc1 | 0.309 |
| O=C1OC[C@@H](c2ccccc2)n2cc(/C=C/c3ccccc3)cc21 | -0.161 |
| C[C@]12C(=O)N(CCO)[C@@H]3C(=O)N(c4ccc(Cl)cc4)CC=CC31O[C@@H]1/C=C\CCCOC(=O)C12 (stereo not given in full) | -1.53 |

Challenge: System Dickkopf-related protein 1 (Homo sapiens) (UniProt O94907). Read-out composite z-score. Item Cc1ccc(S[C@]2(C(=O)NCCN3CCOCC3)CC(=O)N(C(C)C)[C@@H]2c2ccc(CO)cc2I)cc1 . Report value.
Response given: -0.908

Challenge: Determine reported composite z-score for COc1ccc([Si](C)(C)[C@@H]2[C@@H](CC(=O)N(CCO)Cc3ccccc3)O[C@]3(C(=O)N(Cc4cccc(I)c4)c4ccccc43)[C@H]2C)cc1 ; test system: Dickkopf-related protein 1 (Homo sapiens) (UniProt O94907).
Response given: 1.34

Challenge: Quote composite z-score with test system Dickkopf-related protein 1 (Homo sapiens) (UniProt O94907) for O=C1C2C=CC(C(O)C3CC=CCC3)N(Nc3ccc([N+](=O)[O-])cc3)C2C(=O)N1c1ccccc1 (stereo not given)
Response given: 0.386

Challenge: # lookup: Dickkopf-related protein 1 (Homo sapiens) (UniProt O94907) composite z-score, key = Cc1ccc(S[C@]2(C(=O)NC(C)C)CC(=O)N(Cc3ccccc3)[C@@H]2c2ccc(CO)cc2)cc1
Response given: -1.51

Challenge: Answer briefly: composite z-score recorded on Dickkopf-related protein 1 (Homo sapiens) (UniProt O94907) for O=C1C2C=CC(C(O)c3ccccn3)N(Nc3ccc([N+](=O)[O-])cc3)C2C(=O)N1c1ccccc1 (stereo not given)
Response given: -0.189

Challenge: State the measured composite z-score (Dickkopf-related protein 1 (Homo sapiens) (UniProt O94907)) of C=CCNC(=O)[C@H]1[C@@H]2C(=O)O[C@@H](c3ccccc3)[C@@H](c3ccccc3)N2[C@@H](c2ccc(OCCO)cc2)[C@]12C(=O)Nc1ccc(C#Cc3ccc(OC)cc3)cc12
Response given: 0.736

Challenge: Please respond with reported composite z-score (system Dickkopf-related protein 1 (Homo sapiens) (UniProt O94907)) for CC[C@@H](O[Si](C#C[Si](C(C)C)(C(C)C)C(C)C)(C(C)C)C(C)C)c1cn([C@H](C)c2ccccc2)nn1 .
Response given: 0.432

Challenge: Provide measured composite z-score on Dickkopf-related protein 1 (Homo sapiens) (UniProt O94907) for O=C(c1ccccc1)N1Cc2ccccc2C[C@@]2(N=C(c3ccc(OCCCO)cc3)O[C@H]2c2ccccc2)C1=O please.
Response given: 0.777

Challenge: Report value only: composite z-score, Dickkopf-related protein 1 (Homo sapiens) (UniProt O94907), COc1ccc(CCNC(=O)[C@@H]2c3ccccc3C(=O)N(C(C)C)[C@H]2c2ccc(CO)cc2)cc1
Response given: -0.995

* * *

# Tested on: XIP peptide (Xip251-270) binding
# Protocol Text: small-molecule binders of XIP peptide, primary screen, biochemical, small-molecule microarray, fluorescence 635/667 nm, 0.1 µg/mL protein (AID 1182)
# Measurement Setup: fluorescent protein binding, 635 nm, higher = more signal, called active from +8 up or from −8 down
The entries below are paired with their reported composite z-score.
Answer using only a numeral; do not append any unit.

Solved cases (5 shown):
| Compound | composite z-score |
| --- | --- |
| C[N+](C)(C)CCCC[C@@H]1NC(=O)[C@H]2C[C@@H](C(=O)O)[C@@H](c3ccc(O)cc3)N2C1=O | 0.154 |
| C=CCOC(=O)[C@H]1[C@@H]2C(=O)O[C@@H](c3ccccc3)[C@@H](c3ccccc3)N2[C@@H](c2ccc(OCCOC(=O)[C@H]3C[C@H]4C(=O)NCC(=O)N4[C@H]3c3cccc(OCCO)c3)cc2)[C@]12C(=O)Nc1ccc(I)cc12 | 0.585 |
| CCCCC(=C=CC[C@@H](O)c1ccc(OCCO)cc1)CCO | 0.218 |
| O=C1C[C@@](C(=O)NCC(F)(F)F)(c2ccc([N+](=O)[O-])cc2)[C@@H](c2ccc(CO)cc2I)N1CC12CC3CC(CC(C3)C1)C2 | 2.08 |
| COc1c(C)cc(-c2cc3c(c(CCc4ccccc4)n2)[Si](C(C)C)(C(C)C)O[C@H]3c2ccccc2)cc1C | -0.0596 |

Challenge: Give reported composite z-score value for C[C@]1(C(=O)O)c2ccccc2C(=O)N(Cc2cc(C(F)(F)F)cc(C(F)(F)F)c2)[C@H]1c1ccc(CO)cc1
Response given: 0.17
